Recorded values, source ChEMBL document CHEMBL6087458.

- System: Vascular endothelial growth factor receptor 2 (Homo sapiens, UniProt P35968)
- Sequence (P35968 whole entry): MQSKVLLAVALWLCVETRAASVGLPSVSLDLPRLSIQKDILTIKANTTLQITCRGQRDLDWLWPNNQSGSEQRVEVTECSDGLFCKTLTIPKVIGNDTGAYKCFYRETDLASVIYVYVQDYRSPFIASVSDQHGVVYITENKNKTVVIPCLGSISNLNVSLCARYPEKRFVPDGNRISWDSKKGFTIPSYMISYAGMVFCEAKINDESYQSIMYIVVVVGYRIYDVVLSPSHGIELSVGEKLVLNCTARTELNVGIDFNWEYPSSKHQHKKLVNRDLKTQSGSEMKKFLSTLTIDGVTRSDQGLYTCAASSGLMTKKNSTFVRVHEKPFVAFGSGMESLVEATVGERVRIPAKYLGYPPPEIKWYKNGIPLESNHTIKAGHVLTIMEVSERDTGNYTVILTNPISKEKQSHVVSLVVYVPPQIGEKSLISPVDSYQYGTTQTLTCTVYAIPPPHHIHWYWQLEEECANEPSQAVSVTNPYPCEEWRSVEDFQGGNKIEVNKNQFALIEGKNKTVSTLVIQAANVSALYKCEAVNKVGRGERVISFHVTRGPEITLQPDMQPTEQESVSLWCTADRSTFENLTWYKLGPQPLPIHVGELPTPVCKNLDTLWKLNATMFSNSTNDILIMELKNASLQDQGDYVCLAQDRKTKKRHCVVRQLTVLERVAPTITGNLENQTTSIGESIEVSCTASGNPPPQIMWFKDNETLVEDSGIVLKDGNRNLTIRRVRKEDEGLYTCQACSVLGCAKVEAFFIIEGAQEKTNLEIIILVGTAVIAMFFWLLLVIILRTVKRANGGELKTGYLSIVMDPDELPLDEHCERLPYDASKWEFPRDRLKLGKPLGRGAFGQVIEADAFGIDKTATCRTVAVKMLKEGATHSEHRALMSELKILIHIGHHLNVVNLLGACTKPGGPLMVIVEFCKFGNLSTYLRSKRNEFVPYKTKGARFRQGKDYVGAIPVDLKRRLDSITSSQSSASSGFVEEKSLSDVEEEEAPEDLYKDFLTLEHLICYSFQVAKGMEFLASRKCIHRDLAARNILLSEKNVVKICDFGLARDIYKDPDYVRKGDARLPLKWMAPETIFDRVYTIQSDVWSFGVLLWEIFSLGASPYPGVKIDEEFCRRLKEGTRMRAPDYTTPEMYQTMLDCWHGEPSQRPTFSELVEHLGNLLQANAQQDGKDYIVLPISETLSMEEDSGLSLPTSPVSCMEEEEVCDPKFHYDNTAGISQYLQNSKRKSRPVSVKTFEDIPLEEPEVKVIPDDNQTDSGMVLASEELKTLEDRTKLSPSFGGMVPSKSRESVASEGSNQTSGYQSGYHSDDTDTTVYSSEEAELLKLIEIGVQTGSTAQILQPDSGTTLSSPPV
Recorded Endpoint: IC50 (nM)
Report the figure in nM without appending any unit label.

Specify IC50 for CCN1CCN(C(C)C(=O)N(C)c2ccc(N/C(=C3\C(=O)Nc4cc(Cl)ccc43)c3ccccc3)cc2)CC1 (racemic) , system Vascular endothelial growth factor receptor 2 (Homo sapiens, UniProt P35968).
1.52

* * *

half-life reference
- Method: Half life in Sprague-Dawley rat at 50 mg/kg, po
- Format: ADME, organism-based
- Cond: in vivo
Report the figure in h without appending any unit label.

COC(=O)c1ccc2c(c1)NC(=O)/C2=C(\Nc1ccc(N(C)C(=O)CN2CCN(C)CC2)cc1)c1ccccc1 : 3.99

Read the entry CCN1CCN(C(C)C(=O)N(C)c2ccc(N/C(=C3\C(=O)Nc4cc(Cl)ccc43)c3ccccc3)cc2)CC1 (racemic) and write its reported half-life.
18.8

* * *

Tmax reference
- Method: Tmax in Sprague-Dawley rat at 50 mg/kg, po
- Assay type: ADME, organism-based
- Cond: in vivo
Report the figure in h without appending any unit label.

COC(=O)c1ccc2c(c1)NC(=O)/C2=C(\Nc1ccc(N(C)C(=O)CN2CCN(C)CC2)cc1)c1ccccc1 : 2

Now look at this entry.
Read the entry CCN1CCN(C(C)C(=O)N(C)c2ccc(N/C(=C3\C(=O)Nc4cc(Cl)ccc43)c3ccccc3)cc2)CC1 (racemic) and write its reported Tmax.
8

* * *

- Method: Cytotoxicity against mouse NIH/3T3 cells assessed as cell viability incubated for 72 hrs by MTT assay
- Assay type: toxicity, cell-based, NIH3T3
IC50 at 72 h reference
Report the figure in µM without appending any unit label.

COC(=O)c1ccc2c(c1)NC(=O)/C2=C(\Nc1ccc(N(C)C(=O)CN2CCCN(C)CC2)cc1)c1ccccc1 : 3.82

Read the entry "CN1CCN(CC(=O)N(C)c2ccc(N/C(=C3\C(=O)Nc4cc(Cl)ccc43)c3ccccc3)cc2)CC1" and write its reported IC50 at 72 h.
3.11

* * *

- System: MDA-MB-231
- Method: cells
- Cond: Homo sapiens, MDA-MB-231, 72 h
- Description: Antiproliferative activity against human MDA-MB-231 cells assessed as cell viability incubated for 72 hrs by MTT assay
Recorded Endpoint: pIC50
Scale: pIC50 equals -log10([C]), with [C] in mol/L.

COC(=O)c1ccc2c(c1)NC(=O)/C2=C(\Nc1ccc(N(C)C(=O)CN2CCCN(C)CC2)cc1)c1ccccc1 : 5.11
COC(=O)c1ccc2c(c1)NC(=O)/C2=C(\Nc1ccc(N(C)C(=O)C(C)N2CCC(N(C)C)CC2)cc1)c1ccccc1 (racemic) : 5.26
CCN1CCN(CC(=O)N(C)c2ccc(N/C(=C3\C(=O)Nc4cc(Cl)ccc43)c3ccccc3)cc2)CC1 : 5.50
CC(C(=O)N(C)c1ccc(N/C(=C2\C(=O)Nc3cc(Cl)ccc32)c2ccccc2)cc1)N1CCN(C)CC1 (racemic) : 5.91
CN1CCCN(CC(=O)N(C)c2ccc(N/C(=C3\C(=O)Nc4cc(Br)ccc43)c3ccccc3)cc2)CC1 : 5.48

Read the entry "CN(C(=O)CN1CCN(CCO)CC1)c1ccc(N/C(=C2\C(=O)Nc3cc(Br)ccc32)c2ccccc2)cc1" and write its reported pIC50.
5.49

Read the entry "COC(=O)c1ccc2c(c1)NC(=O)/C2=C(\Nc1ccc(N(C)C(=O)CN2CCC(N(C)C)CC2)cc1)c1ccccc1" and write its reported pIC50.
5.20

Read the entry CC(C(=O)N(C)c1ccc(N/C(=C2\C(=O)Nc3cc(Cl)ccc32)c2ccccc2)cc1)N1CCCN(C)CC1 (racemic) and write its reported pIC50.
5.69

Read the entry CC(C(=O)N(C)c1ccc(N/C(=C2\C(=O)Nc3cc(Br)ccc32)c2ccccc2)cc1)N1CCN(C)CC1 (racemic) and write its reported pIC50.
5.84

Read the entry CC(C(=O)N(C)c1ccc(N/C(=C2\C(=O)Nc3cc(Br)ccc32)c2ccccc2)cc1)N1CCC(N(C)C)CC1 (racemic) and write its reported pIC50.
5.83

Read the entry "CCN1CCN(CC(=O)N(C)c2ccc(N/C(=C3\C(=O)Nc4cc(C(=O)OC)ccc43)c3ccccc3)cc2)CC1" and write its reported pIC50.
5.22
